Reference source for all entries: patent US20200239543A1

- Test Target: T1, human CD47 (human, UniProt Q08722 19-139)
- T1 construct: extracellular domain; also called CD47 ECD
- T1 sequence (Q08722 19-139 limits assumed): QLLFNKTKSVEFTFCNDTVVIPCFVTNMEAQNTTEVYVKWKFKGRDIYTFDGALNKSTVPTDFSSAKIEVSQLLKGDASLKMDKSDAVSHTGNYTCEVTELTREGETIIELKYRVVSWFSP
- Assay Protocol: SPR as in Example 1
Measurement Name: Kd

Enquiry: What measured Kd goes with SIRP-α D1 variant fused to Fc variant IgG1 L234A, L235A, G237A, N297A, SEQ ID NO: 96 (Fc fusion) EEELQIIQPDKSVLVAAGETATLRCTITSLFPVGPIQWFRGAGPGRVLIYNQRQGPFPRVTTVSDTTKRNNMDFSIRIGNITPADAGTYYCIKFRKGSPDDVEFKSGAGTELSVRAKPSDKTHTCPPCPAPEAAGAPSVFLFPPKPKDTLMISRTPEVTCVVVDVSHEDPEVKFNWYVDGVEVHNAKTKPREEQYASTYRVVSVLTVLHQDWLNGKEYKCKVSNKALPAPIEKTISKAKGQPREPQVYTLPPSREEMTKNQVSLTCLVKGFYPSDIAVEWESNGQPENNYKTTPPVLDSDGSFFLYSKLTVDKSRWQQGNVFSCSVMHEALHNHYTQKSLSLSPGK ?
Return: 0.0351 nM

Enquiry: What measured Kd goes with SIRP-α D1 variant fused to Fc variant, SEQ ID NO: 97 (Fc fusion) EEELQVIQPDKSVLVAAGETATLRCTATSLFPVGPIQWFRGAGPGRELIYNQRQGPFPRVTTVSDLTKRNNMDFSIRIGNITPADAGTYYCVKFRKGSPDDVEFKSGAGTELSVRAKPSDKTHTCPPCPAPEAAGAPSVFLFPPKPKDTLMISRTPEVTCVVVDVSHEDPEVKFNWYVDGVEVHNAKTKPREEQYASTYRVVSVLTVLHQDWLNGKEYKCKVSNKALPAPIEKTISKAKGQPREPQVYTLPPSREEMTKNQVSLTCLVKGFYPSDIAVEWESNGQPENNYKTTPPVLDSDGSFFLYSKLTVDKSRWQQGNVFSCSVMHEALHNHYTQKSLSLSPGK ?
Return: 1.09 nM
